Target: CaRvs167
Assay: SPOT peptide array binding signal intensity (averaged, normalized) (arbitrary units (background-subtracted, floor 0; scale differs between SH3 domains)); higher = stronger binding of the SH3 domain to the peptide
Cut-off 30 on SPOT peptide array binding signal intensity, inclusive. At or above means 1.0; below means 0.0.

- SKSRLLIELPEGFFT: 0.0
- KMSRSPPRPPSLKII: 1.0
- FSRRQSMDIPSKNRN: 1.0
- GKKVRPLLVLLLSRA: 0.0
- QHQQRQPKRPKRYSL: 0.0
- QRIRKIPGIPLMSVG: 1.0
- NFFRKKLGIPRKLKR: 0.0
